Molecular target: UniProt P13569
Sequence (P13569 with tags, fused parts or gaps DEL508-508): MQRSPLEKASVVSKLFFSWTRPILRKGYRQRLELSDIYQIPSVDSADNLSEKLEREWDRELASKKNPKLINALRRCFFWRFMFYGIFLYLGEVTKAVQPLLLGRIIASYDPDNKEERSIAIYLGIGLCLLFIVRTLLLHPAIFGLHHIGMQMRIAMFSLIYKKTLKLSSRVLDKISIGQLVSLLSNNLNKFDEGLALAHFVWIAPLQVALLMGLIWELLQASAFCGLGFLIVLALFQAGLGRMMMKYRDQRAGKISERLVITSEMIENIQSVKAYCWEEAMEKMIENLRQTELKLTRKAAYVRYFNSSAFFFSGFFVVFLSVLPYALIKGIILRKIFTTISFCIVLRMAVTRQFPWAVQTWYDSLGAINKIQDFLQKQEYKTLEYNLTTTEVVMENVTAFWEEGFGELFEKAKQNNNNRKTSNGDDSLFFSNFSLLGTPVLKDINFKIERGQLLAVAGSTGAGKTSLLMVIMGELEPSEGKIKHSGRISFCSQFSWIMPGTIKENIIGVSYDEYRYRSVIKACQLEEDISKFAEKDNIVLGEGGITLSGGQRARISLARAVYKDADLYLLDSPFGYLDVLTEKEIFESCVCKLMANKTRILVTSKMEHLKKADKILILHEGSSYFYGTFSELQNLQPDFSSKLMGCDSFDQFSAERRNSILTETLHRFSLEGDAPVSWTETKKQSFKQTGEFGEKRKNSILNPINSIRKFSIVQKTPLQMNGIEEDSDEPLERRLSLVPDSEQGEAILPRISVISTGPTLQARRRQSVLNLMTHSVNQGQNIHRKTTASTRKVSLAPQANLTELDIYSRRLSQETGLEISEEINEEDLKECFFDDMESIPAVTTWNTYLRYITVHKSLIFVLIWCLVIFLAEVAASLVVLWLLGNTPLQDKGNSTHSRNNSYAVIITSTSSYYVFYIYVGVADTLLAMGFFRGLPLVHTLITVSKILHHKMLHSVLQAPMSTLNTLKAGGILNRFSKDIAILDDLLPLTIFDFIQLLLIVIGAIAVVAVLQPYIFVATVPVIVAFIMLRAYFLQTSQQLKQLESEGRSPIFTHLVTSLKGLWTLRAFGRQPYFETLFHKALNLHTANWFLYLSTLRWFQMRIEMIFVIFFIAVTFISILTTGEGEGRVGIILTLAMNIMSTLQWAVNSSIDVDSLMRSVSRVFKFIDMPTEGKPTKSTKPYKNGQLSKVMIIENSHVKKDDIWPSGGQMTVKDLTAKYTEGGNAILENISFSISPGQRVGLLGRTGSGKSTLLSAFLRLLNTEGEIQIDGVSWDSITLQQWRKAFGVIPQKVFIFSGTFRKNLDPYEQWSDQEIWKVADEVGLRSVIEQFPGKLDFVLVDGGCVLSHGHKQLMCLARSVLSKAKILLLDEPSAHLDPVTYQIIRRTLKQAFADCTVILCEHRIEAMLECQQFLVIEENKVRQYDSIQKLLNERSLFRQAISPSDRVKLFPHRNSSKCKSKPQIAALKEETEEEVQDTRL
Assay: Membrane Potential Dye, Enteroid Assay B
Format: cell-based
Details: Table 10
measuredParameter: Ent. B Max Activity (%)

[
  {
    "compound": "COC(=O)N1C[C@H]2C[C@@H](C1)C2N1C(=O)c2cccc(c2)S(=O)(=O)Nc2nc(cc(-c3c(C)cccc3C)n2)OC[C@H]1CC(C)(C)C (single isomer, unassigned) [Compound 143]",
    "assayResult": "++ (++ is 30-60%)"
  },
  {
    "compound": "Cc1cccc(C)c1-c1cc2nc(n1)NS(=O)(=O)c1cccc(c1)C(=O)N([C@H]1C[C@@H](OC(F)(F)C(F)(F)F)C1)[C@H](CC(C)C)CO2 [Compound 210]",
    "assayResult": "++ (++ is 30-60%)"
  },
  {
    "compound": "Cc1cccc(C)c1-c1cc2nc(n1)NS(=O)(=O)c1cccc(c1)C(=O)N([C@H]1C[C@@H](N3C[C@@H](O)CC3=O)C1)[C@H](CC(C)C)CO2 (stereo in doubt) [Compound 370]",
    "assayResult": "++ (++ is 30-60%)"
  },
  {
    "compound": "Cc1cccc(C)c1-c1cc2nc(n1)NS(=O)(=O)c1cccc(c1)C(=O)N([C@H]1C[C@@H](OC(=O)Nc3ccccc3)C1)[C@H](CC(C)C)CO2 (stereo in doubt) [Compound 360]",
    "assayResult": "+++ (+++ is >60%)"
  },
  {
    "compound": "Cc1cccc(C)c1-c1cc2nc(n1)NS(=O)(=O)c1cccc(c1)C(=O)N(c1cnn(C)c1)[C@H](CC(C)C)CO2 [Compound 97]",
    "assayResult": "+++ (+++ is >60%)"
  },
  {
    "compound": "[H][C@]1(N2C(=O)c3cccc(c3)S(=O)(=O)Nc3nc(cc(-c4c(C)cccc4C)n3)OC[C@H]2CC(C)C)C[C@@]2(C[C@H](C(C)(C)O)C2)C1 (stereo in doubt) [Compound 413]",
    "assayResult": "+++ (+++ is >60%)"
  },
  {
    "compound": "CCN(C(=O)OC)C1CC2(C1)CC(N1C(=O)c3cccc(c3)S(=O)(=O)Nc3nc(cc(-c4c(C)cccc4C)n3)OC[C@H]1CC(C)(C)C)C2 (stereo in doubt) [Compound 236]",
    "assayResult": "++ (++ is 30-60%)"
  },
  {
    "compound": "COC(=O)NC1CC(N2C(=O)c3cccc(c3)S(=O)(=O)Nc3nc(cc(-c4c(C)cccc4C)n3)OC[C@H]2CC(C)(C)C(F)(F)F)C1 (stereo partly drawn) [Compound 419]",
    "assayResult": "+++ (+++ is >60%)"
  },
  {
    "compound": "CNC(=O)C1CC2(C1)CC(N1C(=O)c3cccc(c3)S(=O)(=O)Nc3nc(cc(-c4c(C)cccc4C)n3)OC[C@H]1CC(C)(C)C)C2 (stereo partly drawn) [Compound 235]",
    "assayResult": "+++ (+++ is >60%)"
  },
  {
    "compound": "Cc1cccc(C)c1-c1cc2nc(n1)NS(=O)(=O)c1cccc(c1)C(=O)N(C1CC(N3CCCC3=O)C1)[C@H](CC(C)C)CO2 (stereo partly drawn) [Compound 369]",
    "assayResult": "++ (++ is 30-60%)"
  },
  {
    "compound": "[H][C@]1(N2C(=O)c3cccc(c3)S(=O)(=O)Nc3nc(cc(-c4c(C)cccc4C)n3)OC[C@H]2CCC(C)C)C[C@@]2(C[C@H](C(C)(C)O)C2)C1 (single isomer, unassigned) [Compound 5]",
    "assayResult": "+++ (+++ is >60%)"
  },
  {
    "compound": "Cc1cccc(C)c1-c1cc2nc(n1)NS(=O)(=O)c1cccc(c1)C(=O)N([C@@H]1CC[C@@H]1C1CC1)[C@H](CC(C)(C)C)CO2 (single isomer, unassigned) [Compound 147]",
    "assayResult": "++ (++ is 30-60%)"
  },
  {
    "compound": "Cc1cccc(C)c1-c1cc2nc(n1)NS(=O)(=O)c1cccc(c1)C(=O)N(C1CC3(C1)CC(O)(CC(C)C)C3)[C@H](CC(C)(C)C)CO2 (stereo in doubt) [Compound 404]",
    "assayResult": "+++ (+++ is >60%)"
  },
  {
    "compound": "CC(=O)NCC[C@H]1C[C@@H](N2C(=O)c3cccc(c3)S(=O)(=O)Nc3nc(cc(-c4c(C)cccc4C)n3)OC[C@H]2CC(C)(C)C)C1 (single isomer, unassigned) [Compound 154]",
    "assayResult": "+++ (+++ is >60%)"
  },
  {
    "compound": "Cc1cccc(C)c1-c1cc2nc(n1)NS(=O)(=O)c1cccc(c1)C(=O)N(C1CC3(CC(C(N)=O)C3)C1)[C@H](CC(C)(C)C)CO2 (stereo partly drawn) [Compound 232]",
    "assayResult": "+++ (+++ is >60%)"
  },
  {
    "compound": "CCC(=O)NC1CC2(C1)CC(N1C(=O)c3cccc(c3)S(=O)(=O)Nc3nc(cc(-c4c(C)cccc4C)n3)OC[C@H]1CC(C)(C)C)C2 (stereo partly drawn) [Compound 353]",
    "assayResult": "+++ (+++ is >60%)"
  },
  {
    "compound": "Cc1cccc(C)c1-c1cc2nc(n1)NS(=O)(=O)c1cccc(n1)C(=O)N(C1CC3(C1)CC(C(C)(C)O)C3)[C@H](CC(C)(C)C)CO2 (single isomer, unassigned) [Compound 161]",
    "assayResult": "+++ (+++ is >60%)"
  },
  {
    "compound": "Cc1cccc(C)c1-c1cc2nc(n1)NS(=O)(=O)c1cccc(c1)C(=O)N(c1cnn(CC(C)C)c1)[C@H](CC(C)(C)C)CO2 [Compound 229]",
    "assayResult": "+++ (+++ is >60%)"
  },
  {
    "compound": "COC(=O)N(C)C1(C)CC(N2C(=O)c3cccc(c3)S(=O)(=O)Nc3nc(cc(-c4c(C)cccc4C)n3)OC[C@H]2CC(C)(C)C)C1 (stereo in doubt) [Compound 241]",
    "assayResult": "++ (++ is 30-60%)"
  },
  {
    "compound": "Cc1cccc(C)c1-c1cc2nc(n1)NS(=O)(=O)c1cccc(c1)C(=O)N(C1CC3(C1)CC(O)(CC(C)C)C3)[C@H](CC(C)(C)C)CO2 (stereo in doubt) [Compound 405]",
    "assayResult": "+++ (+++ is >60%)"
  }
]
